B1: glmS ribozyme (parent)
chain: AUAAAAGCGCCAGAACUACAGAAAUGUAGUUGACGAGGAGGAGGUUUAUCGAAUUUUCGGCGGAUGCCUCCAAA

Variants of: B1
Assay: self-cleavage kobs at 10000 uM GlcN6P; higher = faster cleavage; RNA array
Details: with glucosamine-6-phosphate
This sample holds only a part of the variants without activity.
For each entry below, report its self-cleavage kobs at 10000 uM GlcN6P value.
Give bare numbers, in s⁻¹.

G29C U30G : 0.00472
A12U A39U : 0.0541
A15C C58A : 0.00016

Required: self-cleavage kobs at 10000 uM GlcN6P, one value per variant below.
1. U30A U56C A64G
2. A1G
3. G32A A39C
4. A6C U56G
5. A12U A64C
6. U31G A39U A64C
7. C16U
8. U49G A53U

Result:
["2.96e-05", 0.0405, 0.000259, "3.5e-05", 0.000531, "4.91e-05", 0.0458, 0.000709]
